Target: Neurotensin receptor type 1 (Homo sapiens, UniProt P30989)
Sequence (P30989 whole entry): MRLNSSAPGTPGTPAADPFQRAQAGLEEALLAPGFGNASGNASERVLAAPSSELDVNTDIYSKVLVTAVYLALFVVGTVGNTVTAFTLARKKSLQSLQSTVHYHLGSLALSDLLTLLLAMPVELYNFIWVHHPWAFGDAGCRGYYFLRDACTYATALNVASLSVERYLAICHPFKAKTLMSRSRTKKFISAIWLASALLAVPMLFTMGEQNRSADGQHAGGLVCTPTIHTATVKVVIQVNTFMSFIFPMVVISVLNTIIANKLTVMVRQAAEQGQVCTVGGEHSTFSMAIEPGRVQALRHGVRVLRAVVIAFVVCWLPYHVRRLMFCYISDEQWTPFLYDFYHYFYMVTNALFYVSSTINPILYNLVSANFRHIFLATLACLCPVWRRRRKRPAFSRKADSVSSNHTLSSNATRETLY
Test: Binding of Neurotensin to the NTSR1 Receptor
pEC50: −log10 of the molar value.
Observable: pEC50

>>> quantitative_readout("CCCNc1nc(NC)nc2c1NC(NC)N=C2NCC(C)(C)O (stereo unspecified)")
6.45
